tested on: Acinetobacter baumannii ARLG-1809 OXA-23; assay: MIC test of compounds in combination with antibiotics, Acinetobacter baumannii ARLG-1809; conditions: Biapenem + compound (8 μg/mL)
hey, just use satisfied if measured MIC of biapenem in combination with compound, Acinetobacter baumannii ARLG-1809 OXA-23 is less than 1 µg/mL, otherwise not satisfied

| COMPOUND | STUDY TARGET | LABEL CLASS |
| --- | --- | --- |
| NC1COCC1Sc1ccc2c(c1C(=O)O)OB(O)C1CC21 (single isomer, unassigned) [Compound 11_P1] | Acinetobacter baumannii ARLG-1809 OXA-23 | satisfied |
| NC1COCC1Sc1ccc2c(c1C(=O)O)OB(O)C1CC21 (single isomer, unassigned) [Compound 10_P2] | Acinetobacter baumannii ARLG-1809 OXA-23 | satisfied |
| CC(Sc1ccc2c(c1C(=O)O)OB(O)C1CC21)C1CC1 (single isomer, unassigned) [Compound 16-c] | Acinetobacter baumannii ARLG-1809 OXA-23 | not satisfied |
| C[C@H](Sc1ccc2c(c1C(=O)O)OB(O)[C@@H]1C[C@H]21)C1CN(C)C1 | Acinetobacter baumannii ARLG-1809 OXA-23 | satisfied |
| CC(Sc1ccc2c(c1C(=O)O)OB(O)C1CC21)C1CCOCC1 (single isomer, unassigned) [Compound 17-a] | Acinetobacter baumannii ARLG-1809 OXA-23 | not satisfied |
